# TEST_NAME: Clearance in iv dosed rat
# Type: ADME, organism-based
# CONDITION_SUMMARY: in vivo
READOUT_TYPE: clearance

Briefly, clearance measured for CC(C)(C)NS(=O)(=O)c1cncc(-c2ccc3nc(NC(=O)NCC(=O)N4CCOCC4)nn3c2)c1 : > 200 mL/min/kg

====

What IC50 was measured for each of the following?
# SYSTEM_UNDER_TEST: Phosphatidylinositol 4,5-bisphosphate 3-kinase catalytic subunit alpha isoform (Homo sapiens)
# Sequence (P42336 whole entry, canonical isoform): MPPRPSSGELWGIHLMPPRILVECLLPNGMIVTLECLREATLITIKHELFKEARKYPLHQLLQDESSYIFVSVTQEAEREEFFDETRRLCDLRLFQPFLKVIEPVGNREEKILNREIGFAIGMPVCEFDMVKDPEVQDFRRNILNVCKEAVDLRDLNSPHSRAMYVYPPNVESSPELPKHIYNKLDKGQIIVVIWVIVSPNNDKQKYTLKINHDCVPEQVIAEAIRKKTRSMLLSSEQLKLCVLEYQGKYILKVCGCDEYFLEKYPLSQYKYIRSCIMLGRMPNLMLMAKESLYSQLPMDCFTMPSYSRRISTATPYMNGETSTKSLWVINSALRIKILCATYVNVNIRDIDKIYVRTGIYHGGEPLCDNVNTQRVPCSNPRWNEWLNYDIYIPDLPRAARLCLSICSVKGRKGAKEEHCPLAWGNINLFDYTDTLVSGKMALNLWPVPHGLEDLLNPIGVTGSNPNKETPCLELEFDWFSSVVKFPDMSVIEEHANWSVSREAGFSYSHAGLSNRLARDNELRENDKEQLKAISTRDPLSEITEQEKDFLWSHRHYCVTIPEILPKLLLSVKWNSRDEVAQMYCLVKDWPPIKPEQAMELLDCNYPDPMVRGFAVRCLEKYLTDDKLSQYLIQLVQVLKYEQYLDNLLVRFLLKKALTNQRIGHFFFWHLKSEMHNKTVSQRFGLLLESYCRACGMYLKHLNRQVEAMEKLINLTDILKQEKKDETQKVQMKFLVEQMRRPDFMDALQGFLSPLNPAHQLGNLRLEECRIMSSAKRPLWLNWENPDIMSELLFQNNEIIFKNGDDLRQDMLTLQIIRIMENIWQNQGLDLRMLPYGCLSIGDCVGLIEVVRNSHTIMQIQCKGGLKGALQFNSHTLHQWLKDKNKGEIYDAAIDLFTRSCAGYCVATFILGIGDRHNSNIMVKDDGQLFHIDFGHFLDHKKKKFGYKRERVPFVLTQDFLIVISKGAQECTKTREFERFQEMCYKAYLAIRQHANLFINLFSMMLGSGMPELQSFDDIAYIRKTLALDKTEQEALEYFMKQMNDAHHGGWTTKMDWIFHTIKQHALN
# TEST_NAME: Inhibition of PI3Kalpha in human HL60 cell lysate by kinobead assay

// known answers, use as guide
CC(C)(C)NS(=O)(=O)c1cncc(-c2ccc3nc(NC(=O)NCc4ccccc4)nn3c2)c1 ... > 20 µM
CN(C)CCNC(=O)Nc1nc2ccc(-c3cncc(S(=O)(=O)NC(C)(C)C)c3)cn2n1 ... > 5.01 µM

Please state, for each entry, its recorded IC50.
1. CN(C)C(=O)CNC(=O)Nc1nc2ccc(-c3cncc(S(=O)(=O)NC(C)(C)C)c3)cn2n1
2. Cc1noc(C)c1CCNC(=O)Nc1nc2ccc(-c3cncc(S(=O)(=O)NC(C)(C)C)c3)cn2n1
3. CC(C)(C)NS(=O)(=O)c1cncc(-c2ccc3nc(NC(=O)Nc4ccccc4)nn3c2)c1

Reply text:
1: 12.6 µM; 2: 2 µM; 3: > 100 µM

====

What IC50 was measured for each of the following?
# SYSTEM_UNDER_TEST: Phosphatidylinositol 4,5-bisphosphate 3-kinase catalytic subunit delta isoform (Homo sapiens, UniProt O00329)
# Sequence (O00329 whole entry, canonical isoform): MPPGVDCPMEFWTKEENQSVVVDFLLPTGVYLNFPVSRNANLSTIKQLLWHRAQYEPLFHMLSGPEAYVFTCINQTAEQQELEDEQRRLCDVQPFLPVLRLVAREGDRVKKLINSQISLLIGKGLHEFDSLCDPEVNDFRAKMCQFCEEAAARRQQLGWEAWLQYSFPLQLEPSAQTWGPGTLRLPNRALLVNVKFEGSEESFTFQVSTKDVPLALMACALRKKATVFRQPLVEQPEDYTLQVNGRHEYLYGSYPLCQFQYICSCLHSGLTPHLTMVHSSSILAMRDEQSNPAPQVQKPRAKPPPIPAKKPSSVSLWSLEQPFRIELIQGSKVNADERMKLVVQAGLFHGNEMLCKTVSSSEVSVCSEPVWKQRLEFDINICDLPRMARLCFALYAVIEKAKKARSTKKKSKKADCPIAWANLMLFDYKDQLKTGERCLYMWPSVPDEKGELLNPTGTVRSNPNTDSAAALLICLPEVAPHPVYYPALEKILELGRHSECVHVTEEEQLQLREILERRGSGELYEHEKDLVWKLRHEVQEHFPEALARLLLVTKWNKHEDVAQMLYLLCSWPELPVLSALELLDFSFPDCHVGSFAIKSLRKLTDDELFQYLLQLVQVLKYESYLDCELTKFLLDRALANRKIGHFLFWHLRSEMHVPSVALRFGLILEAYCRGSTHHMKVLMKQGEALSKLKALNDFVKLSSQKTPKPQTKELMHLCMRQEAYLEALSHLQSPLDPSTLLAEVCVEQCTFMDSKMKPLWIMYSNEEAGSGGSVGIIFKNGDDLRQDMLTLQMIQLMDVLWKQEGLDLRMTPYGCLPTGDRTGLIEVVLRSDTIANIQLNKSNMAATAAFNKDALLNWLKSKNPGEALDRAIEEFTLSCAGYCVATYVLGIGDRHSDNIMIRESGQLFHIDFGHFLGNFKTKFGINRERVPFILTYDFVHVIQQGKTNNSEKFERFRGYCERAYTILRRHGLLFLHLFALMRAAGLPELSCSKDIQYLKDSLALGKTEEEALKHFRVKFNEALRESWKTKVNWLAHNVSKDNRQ
# TEST_NAME: Inhibition of PI3Kdelta in human HL60 cell lysate by kinobead assay
One number for each entry, in nM.

// known answers, use as guide
CC(C)(C)NS(=O)(=O)c1cncc(-c2ccc3nc(NC(=O)NCCN4CCOCC4)nn3c2)c1 ... 20
CC(C)(C)NS(=O)(=O)c1cncc(-c2ccc3nc(NC(=O)NCCc4cnccn4)nn3c2)c1 ... 25.1

Now take the following compound into account.
Briefly, IC50 measured for CC(C)(C)NS(=O)(=O)c1cncc(-c2ccc3nc(NC(=O)NCCc4nnc(C5CC5)o4)nn3c2)c1 : 79.4

====

# TEST_NAME: Kinetic solubility in 1%DMSO solution
# Type: physicochemical
# CONDITION_SUMMARY: read-out: Kinetic_solubility
READOUT_TYPE: solubility kinetic

// known answers, use as guide
CC(C)(C)NS(=O)(=O)c1cncc(-c2ccc3nc(NC(=O)NCCn4nnc(C5CC5)n4)nn3c2)c1 ... > 100 µM
CC(C)(C)NS(=O)(=O)c1cncc(-c2ccc3nc(NC(=O)NCC(=O)N4CCOCC4)nn3c2)c1 ... > 100 µM
CN(C)C(=O)CNC(=O)Nc1nc2ccc(-c3cncc(S(=O)(=O)NC(C)(C)C)c3)cn2n1 ... < 6.5 µM

Briefly, solubility kinetic measured for CC(C)(C)NS(=O)(=O)c1cncc(-c2ccc3nc(NC(=O)NCCN4CCOCC4)nn3c2)c1 : 65 µM

====

# Tested on: Liver microsomes
# TEST_NAME: Intrinsic clearance in rat liver microsomes assessed per g of liver
# Format: ADME, Microsome
What CLint was measured for each of the following?
Numbers only, in mL/min/g.

// known answers, use as guide
CC(C)(C)NS(=O)(=O)c1cncc(-c2ccc3nc(NC(=O)NCCn4nnc(C5CC5)n4)nn3c2)c1 ... 0.4
CC(C)(C)NS(=O)(=O)c1cncc(-c2ccc3nc(NC(=O)NCC(=O)N4CCOCC4)nn3c2)c1 ... 0.8
CN(C)C(=O)CNC(=O)Nc1nc2ccc(-c3cncc(S(=O)(=O)NC(C)(C)C)c3)cn2n1 ... 0.9

Now take the following compound into account.
Liver microsomes data for CC(C)(C)NS(=O)(=O)c1cncc(-c2ccc3nc(NC(=O)NCCN4CCOCC4)nn3c2)c1 ; its CLint: 0.9
